These entries and their values trace back to patent US20170066759A1.

Below is a list of entries, each paired with its recorded pIC50 value.
Target: human TRPV4 (hTRPV4/CHO cells) (Homo sapiens, UniProt Q9HBA0)
Construct: expressed in transfected cells; host or cells: CHO-K1
Sequence (Q9HBA0 whole entry): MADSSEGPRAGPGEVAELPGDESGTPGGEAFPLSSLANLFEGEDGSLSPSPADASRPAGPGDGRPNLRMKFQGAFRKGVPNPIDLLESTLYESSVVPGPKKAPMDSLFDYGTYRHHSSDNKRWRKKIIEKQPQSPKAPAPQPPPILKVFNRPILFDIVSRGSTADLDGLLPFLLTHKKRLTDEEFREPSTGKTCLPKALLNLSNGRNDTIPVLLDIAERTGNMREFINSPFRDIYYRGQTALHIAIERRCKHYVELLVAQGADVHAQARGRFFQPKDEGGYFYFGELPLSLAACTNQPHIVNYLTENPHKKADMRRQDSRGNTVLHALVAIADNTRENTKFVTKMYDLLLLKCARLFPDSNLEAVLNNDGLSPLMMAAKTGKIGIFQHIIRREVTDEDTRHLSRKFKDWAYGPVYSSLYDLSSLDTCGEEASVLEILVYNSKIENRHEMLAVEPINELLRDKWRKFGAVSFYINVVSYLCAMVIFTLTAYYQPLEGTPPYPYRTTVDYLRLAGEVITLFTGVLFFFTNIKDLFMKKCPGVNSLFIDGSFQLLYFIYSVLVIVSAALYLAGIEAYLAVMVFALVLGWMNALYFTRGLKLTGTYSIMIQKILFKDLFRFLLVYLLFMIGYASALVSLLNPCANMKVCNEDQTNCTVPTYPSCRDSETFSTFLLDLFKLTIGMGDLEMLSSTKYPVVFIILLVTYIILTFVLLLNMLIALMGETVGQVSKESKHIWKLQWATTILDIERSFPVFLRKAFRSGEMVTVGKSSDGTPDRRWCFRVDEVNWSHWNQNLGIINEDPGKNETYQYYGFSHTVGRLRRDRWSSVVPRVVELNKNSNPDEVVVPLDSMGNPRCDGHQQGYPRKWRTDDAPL
Experiment: Test Example 1: TRPV4 inhibitory activity (IC50 value), 4α-PDD stimulation, Fluo4 calcium fluorescence (FLIPR TETRA)
Format: cell-based
Conditions: Test Example 1, 4α-PDD stimulation, read-out: Test 1 IC50
pIC50: −log10 of the molar value.

- Cc1nc(C)c(-c2csc(NC(=O)Cc3ccccc3C#N)n2)s1: 6.00 to 7.00
- O=C(Nc1nc(-c2sc(CO)nc2CO)cs1)C1CN(c2ccccc2)C1: 6.00 to 7.00
- Cc1nc(C)c(-c2csc(NC(=O)CC3CN(c4ncc(C(F)(F)F)cn4)C3)n2)s1: 6.00 to 7.00

pIC50 reported for this molecule "Cc1nc(C)c(-c2nc(NC(=O)Cc3c(F)cccc3F)sc2C(=O)Nc2ccc(Cl)cc2)s1" : 5.10 to 6.00

pIC50 reported for this molecule "Cc1nc(CO)sc1-c1csc(NC(=O)[C@H]2C[C@@H](OCc3ccc(C(F)(F)F)cc3)C2)n1" : > 7.00

---

Below is a list of entries, each paired with its recorded IC50 value.
Biological target: human TRPV4 (hTRPV4/CHO cells) (Homo sapiens)
Construct: expressed in transfected cells; host or cells: CHO-K1
Assay: Test Example 1: TRPV4 inhibitory activity (IC50 value), 4α-PDD stimulation, Fluo4 calcium fluorescence (FLIPR TETRA)
Format: cell-based
Conditions: Test Example 1, 4α-PDD stimulation, read-out: Test 1 IC50

// known answers, use as guide
* Cc1nc(CO)sc1-c1csc(NC(=O)[C@@H]2C[C@@H](c3ccccc3)CN2C(=O)C(F)(F)F)n1 [Compound I-290] | < 100 nM
* Cc1nc(C)c(-c2csc(NC(=O)C3Cc4ccccc4N3C(=O)C(F)(F)F)n2)s1 (centres unmarked) [Compound I-176] | < 100 nM
* COC(=O)c1cccc(CC(=O)Nc2nc(-c3sc(C)nc3C)cs2)c1 [Compound I-488] | < 100 nM
* NC(=O)NCc1nc(CO)sc1-c1csc(NC(=O)C2CN(c3ccc(C(F)(F)F)cc3)C2)n1 [Compound I-345] | < 100 nM

Item: Cc1nc(CN(C)C)sc1-c1csc(NC(=O)Cc2c(F)cccc2F)n1 [Compound I-81] | System: human TRPV4 (hTRPV4/CHO cells) (Homo sapiens) | IC50: 1000 to 8000 nM

Item: Cc1nc(C)c(-c2nc(NC(=O)Cc3c(F)cccc3F)sc2-c2ccccc2O)s1 [Compound I-64] | System: human TRPV4 (hTRPV4/CHO cells) (Homo sapiens) | IC50: 100 to 1000 nM

Item: Cc1nc(CCO)sc1-c1csc(NC(=O)Cc2ccc(S(=O)(=O)C(F)(F)F)cc2)n1 [Compound I-437] | System: human TRPV4 (hTRPV4/CHO cells) (Homo sapiens) | IC50: < 100 nM

Item: Cc1nc(CO)sc1-c1csc(NC(=O)[C@H]2C[C@@H](C(F)F)C2)n1 [Compound I-355] | System: human TRPV4 (hTRPV4/CHO cells) (Homo sapiens) | IC50: 100 to 1000 nM

---

Target: human TRPV4 (hTRPV4/CHO cells) (Homo sapiens)
Construct: expressed in transfected cells; host or cells: CHO-K1
Assay: Test Example 1: TRPV4 inhibitory activity (IC50 value), 4α-PDD stimulation, Fluo4 calcium fluorescence (FLIPR TETRA)
Type: cell-based
Details: Test Example 1, 4α-PDD stimulation, read-out: Test 1 IC50
Below is a list of entries, each paired with its recorded IC50 value.

- Cc1nc(C)c(-c2csc(NC(=O)C3Cc4ccccc4C3)n2)s1 [Compound I-43]: < 100 nM
- O=C(Cc1ccc(S(=O)(=O)C(F)(F)F)cc1)Nc1nc(-c2sc(CO)nc2CN2CCOC2=O)cs1: 100 to 1000 nM
- Cc1nc(CO)c(-c2csc(NCCc3c(F)cccc3F)n2)s1: 100 to 1000 nM
- CN(C)Cc1nc(CO)sc1-c1csc(NC(=O)Cc2ccc(S(=O)(=O)C(F)(F)F)cc2)n1: 1000 to 8000 nM
- Cc1nc(C)c(-c2csc(NC(=O)Cc3ccc(S(=O)(=O)C(C)C)cc3)n2)s1: 100 to 1000 nM
- Cc1nc(C)c(-c2csc(NC(=O)[C@H]3CCN(c4ncc(C(F)(F)F)cn4)C3)n2)s1: < 100 nM
- Cc1nc(C)c(-c2csc(NC(=O)C3(COCc4ccccc4)CN(c4ccc(C(F)(F)F)cc4)C3)n2)s1 (racemic): < 100 nM
- Cc1nc(C)c(-c2csc(NC(=O)Cc3cc(N)cc(C(=O)N[C@H](c4ccccc4)C(F)(F)F)c3)n2)s1: < 100 nM
- Cc1nc(C)c(-c2csc(NC(=O)C3CCCN(S(=O)(=O)c4ccccc4)C3)n2)s1 (stereo not shown): 1000 to 8000 nM
- Cc1nc(CO)sc1-c1csc(NC(=O)C2CCN(c3ccccc3)C2)n1 (stereo not shown): < 100 nM

IC50 reported for this molecule CC(OC(N)=O)c1nc(CO)sc1-c1csc(NC(=O)Cc2ccc(S(=O)(=O)C(F)(F)F)cc2)n1 (single isomer, unassigned) [Compound I-478] : 100 to 1000 nM

IC50 reported for this molecule "Cc1nc(CO)sc1-c1csc(NC(=O)[C@H]2C[C@@H](N(C)Cc3ccc(C(F)(F)F)cc3)C2)n1" : < 100 nM

IC50 reported for this molecule "Cc1nc(C(=O)NO)sc1-c1csc(NC(=O)Cc2c(F)cccc2F)n1" : 100 to 1000 nM

IC50 reported for this molecule "Cc1nc(C)c(-c2csc(CCOc3ccc(Br)cc3)n2)s1" : 1000 to 8000 nM

IC50 reported for this molecule "CC(=O)NCc1nc(C)c(-c2csc(NC(=O)Cc3ccc(S(=O)(=O)C(F)(F)F)cc3)n2)s1" : 100 to 1000 nM

IC50 reported for this molecule "Cc1nc(C)c(-c2csc(NC(=O)[C@H]3CC[C@@H](c4ccccc4)N3)n2)s1" : 100 to 1000 nM
